experiment: pH profile of enzymes on 1 mM ATP; type: biochemical; conditions: 50 mM trisodium citrate/citric acid, 5 mM CaCl2, relative to the highest value
Reported Relative activity on ATP, pH 3.5 values for the following molecules.

{"columns": ["Molecule", "Value measured"],
 "data": [
  ["CRC25099: Acid phosphatase (Class A), accession WP_195761705.1, SEQ ID NO:23 (protein, listed as Pantoea sp.) LQSSGFLTAETAPDSLAILPPPPAENSVTFQSDKAQYEAGHVLRNVARTELASKDADYKNFGQAFSAAFGMEISESHTPVLYHLLSEVLQDSHDFAMRGAKDHYKRVRPFVIYKDSTCTPDKDKSMSTTGSYPSGHASFGWAAALILAEINPSRETEIIRRGYDFGESRVVCGAHWQSDVENGRIMGATVVASLHANAKFAELLSQAKNEFATLSAQDSK", 0.1]
]}

Field: next molecule
# get_value(readout='Relative activity on ATP, pH 3.5', item= CRC25085: Acid phosphatase (Class A), accession WP_092747651.1, SEQ ID NO:21 (protein, listed as Acinetobacter boissieri) LEQSNSFLQLAQVPDSLAIVPAPPAYNSVDFLRDKAAYDQAKSLVGTERWKVAAEDADLSDANIGKPFSQALGIEISPQNTPITYEILRKLRTDAGNYATKAAKEHYMRLRPFMFFNSHTCTPNDEANLSKNGAYPSGHTTIGWSSALVLAEIRPERQNEILQRGYEYGQSRVICGVHWQSDVDAGRITGSAIVARLHADKAFTKMLEEAKQEIQRKTK ) 0.6
